- Test system: E. coli
- ASSAY_TEXT: Antimicrobial serial tube dilution, MIC and MBC
- Assay type: cell-based, Escherichia coli MTCC 1652
- SETTINGS: Escherichia coli, 24 h, read-out: E. coli MIC, 24 h at 37 ± 2 °C
// NB: equality with 60 µg/mL counts as false; only MIC strictly below is true

{"columns": ["COMPOUND", "ASSIGNED_LABEL"],
 "data": [
  ["CC(=O)c1ccc(O)c(N=Nc2cccc(Cl)c2Cl)c1", "true"],
  ["CO/N=C(\\C(=O)N[C@@H]1C(=O)N2C(C(=O)O)=C(COC(C)=O)CS[C@H]12)c1csc(N)n1 [Cefotaxime, cefotaxime, reference compound]", "true"],
  ["CC(=O)c1ccc(N=Nc2c(O)cccc2O)cc1", "true"],
  ["O=C(/C=C\\c1cc(Br)ccc1O)c1ccc(N=Nc2ccc([N+](=O)[O-])cc2Cl)c(O)c1", "true"],
  ["O=C(/C=C\\c1ccccc1[N+](=O)[O-])c1cccc(N=Nc2cccc(Cl)c2Cl)c1O", "false"],
  ["O=Cc1ccc(/C=C\\C(=O)c2cccc(N=Nc3cccc(Cl)c3Cl)c2O)cc1", "false"],
  ["O=C(/C=C\\c1ccc(Cl)cc1Cl)c1cccc(N=Nc2cccc(Cl)c2Cl)c1O", "false"]
]}

====

- System: HEK human embryonic kidney cells
- ASSAY_TEXT: MTT cytotoxicity assay, HEK
- Assay type: cell-based
- SETTINGS: 48 h
- Method: The cell lines employed in the investigation were purchased from the National Centre for Cell Sciences (NCCS), Pune, India. […] The compounds showing maximum activity (antimicrobial and antioxidant potential) were screened for cytotoxicity against A549 and HEK cell lines using MTT assay. […] To dissolve the formazan crystals, 100 µl of DMSO was added, and the ELISA reader was used to check the absorbance at 570 nm wavelength. […]
// NB: equality with 300 µg/mL counts as rule not met; only IC50 strictly below is rule met

{"columns": ["MOLECULE", "SYSTEM_UNDER_TEST", "ASSIGNED_LABEL"],
 "data": [
  ["O=Cc1ccc(/C=C\\C(=O)c2cccc(N=Nc3cccc(Cl)c3Cl)c2O)cc1 [Compound C-25]", "HEK human embryonic kidney cells", "rule met"],
  ["O=C(/C=C\\c1ccco1)c1ccc(N=Nc2c(O)cccc2O)cc1 [Compound C-24]", "HEK human embryonic kidney cells", "rule met"],
  ["O=Cc1ccc(/C=C\\C(=O)c2ccc(N=Nc3c(O)cccc3O)cc2)cc1 [Compound C-23]", "HEK human embryonic kidney cells", "rule met"],
  ["COc1ccccc1/C=C\\C(=O)c1ccc(N=Nc2c(O)cccc2O)cc1 [Compound C-27]", "HEK human embryonic kidney cells", "rule not met"],
  ["O=C(/C=C\\c1ccc(Cl)cc1Cl)c1cccc(N=Nc2cccc(Cl)c2Cl)c1O [Compound C-19]", "HEK human embryonic kidney cells", "rule met"]
]}

====

Overview of reported % inhibition of DPPH across a group of molecules:
- ASSAY_TEXT: DPPH scavenging antioxidant assay
- SETTINGS: 12.5 µg ml^−1
ENDPOINT: % inhibition of DPPH (%)

{"columns": ["MOLECULE", "ENDPOINT", "OBSERVED"],
 "data": [
  ["O=C1O[C@H]([C@@H](O)CO)C(O)=C1O [Ascorbic acid, ascorbic acid, reference compound]", "% inhibition of DPPH", 84.09],
  ["COc1ccccc1/C=C\\C(=O)c1ccc(N=Nc2c(O)cccc2O)cc1 [Compound C-27]", "% inhibition of DPPH", 82.21],
  ["O=C(/C=C\\c1cccc(Br)c1)c1cccc(N=Nc2cc(Cl)ccc2Cl)c1O [Compound C-26]", "% inhibition of DPPH", 14.04],
  ["O=C(/C=C/c1ccc(Cl)cc1Cl)c1ccc(O)c(N=Nc2cccc(Cl)c2Cl)c1 [Compound C-18]", "% inhibition of DPPH", 12.35],
  ["O=C(/C=C\\c1ccccc1[N+](=O)[O-])c1cccc(N=Nc2cccc(Cl)c2Cl)c1O [Compound C-20]", "% inhibition of DPPH", 14.32],
  ["CC(=O)c1ccc(O)c(N=Nc2cccc(Cl)c2Cl)c1 [Dye A]", "% inhibition of DPPH", 17.67],
  ["O=C(/C=C\\c1ccc(Cl)cc1Cl)c1cccc(N=Nc2cccc(Cl)c2Cl)c1O [Compound C-19]", "% inhibition of DPPH", 10.87],
  ["O=C(/C=C\\c1cc(Br)ccc1O)c1ccc(N=Nc2c(O)cccc2O)cc1 [Compound C-21]", "% inhibition of DPPH", 25.71]
]}

====

- ASSAY_TEXT: DPPH scavenging antioxidant assay
- SETTINGS: 1.56 µg ml^−1
- Protocol: The derivatives (C18–C27) were assessed for their antioxidant potential in the presence of the stable free radical DPPH using ascorbic acid as the standard compound [36, 37]. […] After 30 min of incubation, the plate was kept in ELISA reader to measure the absorbance values at 517 nm. […] The antioxidant activity of each sample was then calculated as per cent inhibition of DPPH according to the following equation: %decolourationofDPPH=ControlAbs-SampleAbs×100/ControlAbs
Overview of reported % inhibition of DPPH across a group of compounds:

{"columns": ["COMPOUND", "% inhibition of DPPH / %"],
 "data": [
  ["O=C(/C=C\\c1ccco1)c1ccc(N=Nc2c(O)cccc2O)cc1", 24.16],
  ["O=C(/C=C\\c1cc(Br)ccc1O)c1ccc(N=Nc2c(O)cccc2O)cc1", 8.71],
  ["O=Cc1ccc(/C=C\\C(=O)c2cccc(N=Nc3cccc(Cl)c3Cl)c2O)cc1", 9.71],
  ["COc1ccccc1/C=C\\C(=O)c1ccc(N=Nc2c(O)cccc2O)cc1", 26.13],
  ["CC(=O)c1ccc(O)c(N=Nc2cccc(Cl)c2Cl)c1", 4.65],
  ["O=C(/C=C\\c1ccccc1[N+](=O)[O-])c1cccc(N=Nc2cccc(Cl)c2Cl)c1O", 8.15],
  ["O=C(/C=C\\c1ccc(Cl)cc1Cl)c1cccc(N=Nc2cccc(Cl)c2Cl)c1O", 6.64],
  ["O=C(/C=C/c1ccc(Cl)cc1Cl)c1ccc(O)cc1", 6.54],
  ["CC(=O)c1ccc(N=Nc2c(O)cccc2O)cc1", 7.89],
  ["O=C(/C=C\\c1cccc(Br)c1)c1cccc(N=Nc2cc(Cl)ccc2Cl)c1O", 5.72],
  ["O=C1O[C@H]([C@@H](O)CO)C(O)=C1O [Ascorbic acid, ascorbic acid, reference compound]", 39.22],
  ["O=C(/C=C/c1ccc(Cl)cc1Cl)c1ccc(O)c(N=Nc2cccc(Cl)c2Cl)c1", 7.21],
  ["O=Cc1ccc(/C=C\\C(=O)c2ccc(N=Nc3c(O)cccc3O)cc2)cc1", 19.03],
  ["O=C(/C=C\\c1cc(Br)ccc1O)c1ccc(N=Nc2ccc([N+](=O)[O-])cc2Cl)c(O)c1", 8.25]
]}

====

- System: B. cereus
- ASSAY_TEXT: Antimicrobial serial tube dilution, MIC and MBC
- Type: cell-based, Bacillus cereus MTCC 1305
- SETTINGS: Bacillus cereus, 24 h, read-out: B. cereus MIC
ENDPOINT: MIC (µg/mL)

{"columns": ["COMPOUND_SMILES", "OBSERVED"],
 "data": [
  ["O=C(/C=C\\c1ccc(Cl)cc1Cl)c1cccc(N=Nc2cccc(Cl)c2Cl)c1O", 500],
  ["O=C(/C=C\\c1cc(Br)ccc1O)c1ccc(N=Nc2c(O)cccc2O)cc1", 62.5],
  ["O=Cc1ccc(/C=C\\C(=O)c2cccc(N=Nc3cccc(Cl)c3Cl)c2O)cc1", 125],
  ["COc1ccccc1/C=C\\C(=O)c1ccc(N=Nc2c(O)cccc2O)cc1", 125]
]}

====

- ASSAY_TEXT: DPPH scavenging antioxidant assay
- SETTINGS: 12.5 µg ml^−1
Overview of reported % inhibition of DPPH across a group of molecules:

{"columns": ["MOLECULE", "% inhibition of DPPH [%]"],
 "data": [
  ["O=C(/C=C\\c1ccco1)c1ccc(N=Nc2c(O)cccc2O)cc1 [Compound C-24]", 54.71],
  ["O=Cc1ccc(/C=C\\C(=O)c2ccc(N=Nc3c(O)cccc3O)cc2)cc1 [Compound C-23]", 50.45],
  ["O=Cc1ccc(/C=C\\C(=O)c2cccc(N=Nc3cccc(Cl)c3Cl)c2O)cc1 [Compound C-25]", 13.56],
  ["CC(=O)c1ccc(N=Nc2c(O)cccc2O)cc1 [Dye E]", 26.18],
  ["O=C(/C=C\\c1cc(Br)ccc1O)c1ccc(N=Nc2ccc([N+](=O)[O-])cc2Cl)c(O)c1 [Compound C-22]", 11.79],
  ["O=C(/C=C/c1ccc(Cl)cc1Cl)c1ccc(O)cc1 [Chalcone]", 16.90]
]}

====

- ASSAY_TEXT: DPPH scavenging antioxidant assay
- SETTINGS: 100 µg ml^−1
- Protocol: The derivatives (C18–C27) were assessed for their antioxidant potential in the presence of the stable free radical DPPH using ascorbic acid as the standard compound [36, 37]. […] After 30 min of incubation, the plate was kept in ELISA reader to measure the absorbance values at 517 nm. […] The antioxidant activity of each sample was then calculated as per cent inhibition of DPPH according to the following equation: %decolourationofDPPH=ControlAbs-SampleAbs×100/ControlAbs
Overview of reported % inhibition of DPPH across a group of compounds:
ENDPOINT: % inhibition of DPPH (%)

{"columns": ["COMPOUND", "OBSERVED"],
 "data": [
  ["O=C1O[C@H]([C@@H](O)CO)C(O)=C1O [Ascorbic acid, ascorbic acid, reference compound]", 90.31],
  ["O=C(/C=C\\c1cccc(Br)c1)c1cccc(N=Nc2cc(Cl)ccc2Cl)c1O [Compound C-26]", 29.62],
  ["O=C(/C=C\\c1ccco1)c1ccc(N=Nc2c(O)cccc2O)cc1 [Compound C-24]", 99.17],
  ["O=C(/C=C\\c1cc(Br)ccc1O)c1ccc(N=Nc2c(O)cccc2O)cc1 [Compound C-21]", 39.56],
  ["CC(=O)c1ccc(O)c(N=Nc2cccc(Cl)c2Cl)c1 [Dye A]", 35.45],
  ["O=C(/C=C/c1ccc(Cl)cc1Cl)c1ccc(O)cc1 [Chalcone]", 51.80],
  ["O=C(/C=C\\c1cc(Br)ccc1O)c1ccc(N=Nc2ccc([N+](=O)[O-])cc2Cl)c(O)c1 [Compound C-22]", 23.27],
  ["COc1ccccc1/C=C\\C(=O)c1ccc(N=Nc2c(O)cccc2O)cc1 [Compound C-27]", 96.62],
  ["O=C(/C=C/c1ccc(Cl)cc1Cl)c1ccc(O)c(N=Nc2cccc(Cl)c2Cl)c1 [Compound C-18]", 31.98]
]}
